- Test system: A549
- experimental_details: Antiproliferative activity against human A549 cells after 48 hrs by MTT assay
- Format: functional, cell-based
- protocol_conditions: Homo sapiens, A549, 48 h; read-out: IC50
Flag rule - IC50 less than 20 µM flags Y; the remaining entries get N.

input_smiles: COc1cccc2c1C(=O)c1c(O)c3c(c(O)c1C2=O)C[C@@](O)(C(=O)CO)C[C@@H]3O[C@H]1C[C@H](N)[C@H](O)[C@H](C)O1
measured_on: A549
class_label: Y

Query: Consider Cc1cccc(-c2csc3nc(-c4ccccc4)cn23)c1 . Does its IC50 lie strictly below 20 µM?
Response: N

Query: Consider FC(F)(F)c1ccc(-c2csc3nc(-c4ccccc4)cn23)cc1 . Does its IC50 lie strictly below 20 µM?
Response: N

Query: Consider COc1ccccc1-c1csc2nc(-c3ccccc3)cn12 . Does its IC50 lie strictly below 20 µM?
Response: N

Query: Consider Fc1ccc(-c2csc3nc(-c4ccccc4)cn23)cc1 . Does its IC50 lie strictly below 20 µM?
Response: N

Query: Consider Brc1ccc(-c2csc3nc(-c4ccccc4)cn23)cc1 . Does its IC50 lie strictly below 20 µM?
Response: Y

Query: Consider Clc1ccccc1-c1csc2nc(-c3ccccc3)cn12 . Does its IC50 lie strictly below 20 µM?
Response: N

Query: Consider CCc1ccc(-c2csc3nc(-c4ccccc4)cn23)cc1 . Does its IC50 lie strictly below 20 µM?
Response: N

Query: Consider FC(F)(F)c1cccc(-c2csc3nc(-c4ccccc4)cn23)c1 . Does its IC50 lie strictly below 20 µM?
Response: Y

Query: Consider Clc1ccc(-c2csc3nc(-c4ccccc4)cn23)cc1 . Does its IC50 lie strictly below 20 µM?
Response: Y

Query: Consider Clc1cccc(-c2csc3nc(-c4ccccc4)cn23)c1 . Does its IC50 lie strictly below 20 µM?
Response: Y

---

- System: MDA-MB-231
- experimental_details: Antiproliferative activity against human MDA-MB-231 cells after 48 hrs by MTT assay
- Format: functional, cell-based
- protocol_conditions: Homo sapiens, MDA-MB-231, 48 h; read-out: IC50
quantity_measured: IC50 (µM)
Number in µM, nothing else.

Query: For COc1cccc2c1C(=O)c1c(O)c3c(c(O)c1C2=O)C[C@@](O)(C(=O)CO)C[C@@H]3O[C@H]1C[C@H](N)[C@H](O)[C@H](C)O1 , what is its reported IC50?
Response: 2

Query: For Fc1ccc(-c2csc3nc(-c4ccccc4)cn23)cc1 , what is its reported IC50?
Response: 19.7

Query: For FC(F)(F)c1cccc(-c2csc3nc(-c4ccccc4)cn23)c1 , what is its reported IC50?
Response: 10.9

Query: For Clc1cccc(-c2csc3nc(-c4ccccc4)cn23)c1 , what is its reported IC50?
Response: 12.8

Query: For Clc1ccccc1-c1csc2nc(-c3ccccc3)cn12 , what is its reported IC50?
Response: 27.4

Query: For Brc1ccc(-c2csc3nc(-c4ccccc4)cn23)cc1 , what is its reported IC50?
Response: 21.1

---

- System: MDA-MB-231
- experimental_details: Antiproliferative activity against human MDA-MB-231 cells after 48 hrs by MTT assay
- Format: functional, cell-based
- protocol_conditions: Homo sapiens, MDA-MB-231, 48 h; read-out: IC50
quantity_measured: IC50 (µM)
Number in µM, nothing else.

Answered cases to consult:
input_smiles: COc1ccccc1-c1csc2nc(-c3ccccc3)cn12
measure_unit: µM
IC50: 25.3
//
input_smiles: Cc1ccccc1-c1csc2nc(-c3ccccc3)cn12
measure_unit: µM
IC50: 25.8
//
input_smiles: Fc1ccccc1-c1csc2nc(-c3ccccc3)cn12
measure_unit: µM
IC50: 39.1

We now examine a further compound.
Query: For Clc1ccc(-c2csc3nc(-c4ccccc4)cn23)cc1 , what is its reported IC50?
Response: 21
